molecular target: Cell-associated proTGFβ1 (hGARP-proTGFβ1 and hLRRC33-proTGFβ1); test: MSD-SET, hIgG4; Cell AVRG over ECM AVRG
Label satisfied when G/D (fold bias) is strictly below 3 fold; otherwise label not satisfied.

Some solved entries appear below for comparison.
Task item: Is G/D (fold bias) of Ab29 (antibody, V domains shown) VH: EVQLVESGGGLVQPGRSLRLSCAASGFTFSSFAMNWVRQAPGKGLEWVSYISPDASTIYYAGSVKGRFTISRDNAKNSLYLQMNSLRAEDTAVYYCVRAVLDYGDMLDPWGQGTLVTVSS VL: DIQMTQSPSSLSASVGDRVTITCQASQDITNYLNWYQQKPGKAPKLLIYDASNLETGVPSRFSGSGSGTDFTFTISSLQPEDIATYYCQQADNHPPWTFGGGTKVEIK strictly below 3 fold?
Reply: satisfied

Task item: Is G/D (fold bias) of Ab30 (antibody, V domains shown) VH: EVQLVESGGGLVQPGGSLRLSCAASGFTFSSFSMDWVRQAPGKGLEWVSYISPDASTIYYADSVKGRFTISRDNAKNSLYLQMNSLRAEDTAVYYCARGTLDYGDMLDPWGQGTLVTVSS VL: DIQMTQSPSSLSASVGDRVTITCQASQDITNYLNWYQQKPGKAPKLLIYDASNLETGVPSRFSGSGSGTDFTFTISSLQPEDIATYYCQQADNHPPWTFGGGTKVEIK strictly below 3 fold?
Reply: satisfied

Task item: Is G/D (fold bias) of Ab26 (antibody, V domains shown) VH: EVQLVESGGGLVQPGGSLRLSCAASGFTFSSFSMDWVRQAPGKGLEWVSYISPDASTIYYADSVKGRFTISRDNAKNTLYLQMNSLRAEDTAVYYCARGVLDYGDMLDPWGQGTLVTVSS VL: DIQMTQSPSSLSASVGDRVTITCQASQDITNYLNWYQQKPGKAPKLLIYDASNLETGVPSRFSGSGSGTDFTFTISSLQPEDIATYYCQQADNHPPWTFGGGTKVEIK strictly below 3 fold?
Reply: satisfied

Task item: Is G/D (fold bias) of Ab31 (antibody, V domains shown) VH: EVQLVESGGGLVQPGGSLRLSCAASGFTFSSFSMDWVRQAPGKGLEWVSYISPDASTIYYADSVKGRFTISRDNAKNTLYLQMNSLRAEDTAVYYCARAVLDYGDMLDPWGQGTLVTVSS VL: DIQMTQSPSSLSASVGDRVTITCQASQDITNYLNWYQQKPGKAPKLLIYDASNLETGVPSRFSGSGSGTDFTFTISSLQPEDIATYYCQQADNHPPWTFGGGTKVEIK strictly below 3 fold?
Reply: not satisfied

Further cases:
Task item: Is G/D (fold bias) of Ab24 (antibody, V domains shown) VH: EVQLVESGGGLVQPGRSLRLSCAASGFTFSSFAMYWVRQAPGKGLEWVSYISPDASTIYYADSVKGRFTISRDNAKNSLYLQMNSLRAEDTAVYYCARGVLDYGDMLDPWGQGTLVTVSS VL: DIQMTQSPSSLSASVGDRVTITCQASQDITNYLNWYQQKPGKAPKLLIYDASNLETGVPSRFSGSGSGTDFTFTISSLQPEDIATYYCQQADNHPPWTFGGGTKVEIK strictly below 3 fold?
Reply: not satisfied

Task item: Is G/D (fold bias) of Ab4 (antibody, IgG4, V domains shown) VH: EVQLVESGGGLVQPGGSLRLSCAASGFTFSSYSMNWVRQAPGKGLEWVSYISSSSSTIYYADSVKGRFTISRDNAKNSLYLQMNSLRAEDTAVYYCARGVLDYGDMLDPWGQGTLVTVSS VL: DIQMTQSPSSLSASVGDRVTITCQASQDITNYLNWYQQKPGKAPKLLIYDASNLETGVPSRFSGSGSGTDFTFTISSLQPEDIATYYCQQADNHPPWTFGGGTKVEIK strictly below 3 fold?
Reply: satisfied

Task item: Is G/D (fold bias) of Ab22 (antibody, V domains shown) VH: EVQLVESGGGLVQPGGSLRLSCAASGFTFGSFSMNWVRQAPGKGLEWVSYIHSDASTIYYADSVKGRFTISRDNAKNSLYLQMNSLRAEDTAVYYCARGVLDYGDMLDPWGQGTLVTVSS VL: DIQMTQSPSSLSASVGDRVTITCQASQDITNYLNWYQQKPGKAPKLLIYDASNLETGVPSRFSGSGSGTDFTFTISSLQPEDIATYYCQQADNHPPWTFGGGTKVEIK strictly below 3 fold?
Reply: satisfied

Value source: patent US20210122814A1
